melting point by entry:

// worked examples, melting point included
# molecule, melting point
data = [
    ("Nc1nc2cc(-c3cccnc3)ccc2c2c1nc(CO)n2CCCCNC(=O)C1CCCC1 [Example 42]", "241 to 242 °C"),
    ("Nc1nc2cc(-c3cccnc3)ccc2c2c1nc(CO)n2CCCCNC(=O)NC1CCCC1 (hydrate or solvate) [Example 41]", "225 to 227 °C"),
    ("Nc1nc2cc(-c3cccc(C(=O)N4CCCC4)c3)ccc2c2c1nc(CO)n2CC1CCOCC1 [Example 139]", "281 to 284 °C"),
    ("CC(C)(O)Cn1c(CO)nc2c(N)nc3cc(-c4cncc(CO)c4)ccc3c21 (hydrate or solvate) [Example 33]", "180 to 182 °C"),
    ("CC(C)C(=O)N1CCC(Cn2c(CO)nc3c(N)nc4cc(-c5cccnc5)ccc4c32)CC1 (hydrate or solvate) [Example 35]", "154 to 157 °C"),
    ("CC(C)(O)Cn1c(CO)nc2c(N)nc3cc(-c4ccc(F)nc4)ccc3c21 (hydrate or solvate) [Example 37]", "111 to 114 °C"),
]

// melting point value for Cc1cccc(-c2ccc3c(c2)nc(N)c2nc(CCO)n(CCCN4CCCC4=O)c23)c1 (hydrate or solvate) [Example 47] : 218 to 221 °C

* * *

Counter-ions that a name gives are not always drawn.
readout.kind: melting point

// worked examples, melting point included
# molecule, melting point
records = [
    ("Nc1nc2cc(-c3ccccc3O)ccc2c2c1nc(CCO)n2CCCN1CCCC1=O (hydrate or solvate) [Example 48]", "> 250 °C"),
    ("Nc1nc2cc(-c3cncc(CO)c3)ccc2c2c1nc(CO)n2CC1CCCCC1 (hydrate or solvate) [Example 49]", "166 to 170 °C"),
    ("CC(C)C(=O)NCCCCn1c(CO)nc2c(N)nc3cc(-c4cccnc4)ccc3c21 (hydrate or solvate) [Example 43]", "225 to 227 °C"),
    ("Nc1nc2cc(-c3cccnc3)ccc2c2c1nc(CO)n2CC1CCOCC1 [Example 32]", "260 to 262 °C"),
    ("CS(=O)(=O)NCCCCn1c(CO)nc2c(N)nc3cc(-c4cccnc4)ccc3c21 (hydrate or solvate) [Example 38]", "188 to 190 °C"),
    ("Nc1nc2cc(-c3cccc(C(=O)N4CCOCC4)c3)ccc2c2c1nc(CO)n2CC1CCCCC1 (as salt: HCl) (hydrate or solvate) [Example 50]", "260 to 264 °C"),
]

Read the next record carefully.
// melting point value for CCCNC(=O)NCCCCn1c(CO)nc2c(N)nc3cc(-c4cccnc4)ccc3c21 (hydrate or solvate) [Example 39] : 206 to 209 °C

* * *

Where a name gives a salt, the structure may show the parent alone.
readout.kind: melting point

// worked examples, melting point included
# compound, observed.result
rows = [
    ("CS(=O)(=O)N1CCC(Cn2c(CO)nc3c(N)nc4cc(-c5cccnc5)ccc4c32)CC1", "196 to 198 °C"),
    ("CS(=O)(=O)N1CCC(Cn2c(CO)nc3c(N)nc4cc(-c5cncc(CO)c5)ccc4c32)CC1 (as salt: HBr) (hydrate or solvate)", "> 300 °C"),
    ("CC(C)C(=O)N1CCC(Cn2c(CO)nc3c(N)nc4cc(-c5cncc(CO)c5)ccc4c32)CC1 (as salt: HBr)", "> 300 °C"),
]

// melting point value for "CC(C)NC(=O)N1CCC(Cn2c(CO)nc3c(N)nc4cc(-c5cccnc5)ccc4c32)CC1" : 182 to 184 °C

// melting point value for CCCC(=O)NCCCCn1c(CO)nc2c(N)nc3cc(-c4cccnc4)ccc3c21 (hydrate or solvate) : 211 to 212 °C

// melting point value for CC(C)(O)Cn1c(CO)nc2c(N)nc3cc(-c4cccnc4)ccc3c21 (hydrate or solvate) : 141 to 143 °C

// melting point value for CC(C)NC(=O)N1CCC(Cn2c(CO)nc3c(N)nc4cc(-c5cncc(CO)c5)ccc4c32)CC1 (as salt: HBr) : > 300 °C

Where these numbers come from: patent US8158794B2
